Experiment: Efflux ratio of permeability in MDCK cells
Assay type: ADME, cell-based, Canis lupus familiaris
Details: dog
METRIC_NAME: efflux ratio
The answer should be written as a number, with no unit following it.

get_value(item= `CC1(C)Cc2c(sc(NC(=O)c3ccn[nH]3)c2C(N)=O)C(C)(C)O1` , readout=efflux ratio) returns 2.6

---

Test system: Cystic fibrosis transmembrane conductance regulator (Homo sapiens), P13569 [G551D]
Sequence (P13569 whole entry G551D): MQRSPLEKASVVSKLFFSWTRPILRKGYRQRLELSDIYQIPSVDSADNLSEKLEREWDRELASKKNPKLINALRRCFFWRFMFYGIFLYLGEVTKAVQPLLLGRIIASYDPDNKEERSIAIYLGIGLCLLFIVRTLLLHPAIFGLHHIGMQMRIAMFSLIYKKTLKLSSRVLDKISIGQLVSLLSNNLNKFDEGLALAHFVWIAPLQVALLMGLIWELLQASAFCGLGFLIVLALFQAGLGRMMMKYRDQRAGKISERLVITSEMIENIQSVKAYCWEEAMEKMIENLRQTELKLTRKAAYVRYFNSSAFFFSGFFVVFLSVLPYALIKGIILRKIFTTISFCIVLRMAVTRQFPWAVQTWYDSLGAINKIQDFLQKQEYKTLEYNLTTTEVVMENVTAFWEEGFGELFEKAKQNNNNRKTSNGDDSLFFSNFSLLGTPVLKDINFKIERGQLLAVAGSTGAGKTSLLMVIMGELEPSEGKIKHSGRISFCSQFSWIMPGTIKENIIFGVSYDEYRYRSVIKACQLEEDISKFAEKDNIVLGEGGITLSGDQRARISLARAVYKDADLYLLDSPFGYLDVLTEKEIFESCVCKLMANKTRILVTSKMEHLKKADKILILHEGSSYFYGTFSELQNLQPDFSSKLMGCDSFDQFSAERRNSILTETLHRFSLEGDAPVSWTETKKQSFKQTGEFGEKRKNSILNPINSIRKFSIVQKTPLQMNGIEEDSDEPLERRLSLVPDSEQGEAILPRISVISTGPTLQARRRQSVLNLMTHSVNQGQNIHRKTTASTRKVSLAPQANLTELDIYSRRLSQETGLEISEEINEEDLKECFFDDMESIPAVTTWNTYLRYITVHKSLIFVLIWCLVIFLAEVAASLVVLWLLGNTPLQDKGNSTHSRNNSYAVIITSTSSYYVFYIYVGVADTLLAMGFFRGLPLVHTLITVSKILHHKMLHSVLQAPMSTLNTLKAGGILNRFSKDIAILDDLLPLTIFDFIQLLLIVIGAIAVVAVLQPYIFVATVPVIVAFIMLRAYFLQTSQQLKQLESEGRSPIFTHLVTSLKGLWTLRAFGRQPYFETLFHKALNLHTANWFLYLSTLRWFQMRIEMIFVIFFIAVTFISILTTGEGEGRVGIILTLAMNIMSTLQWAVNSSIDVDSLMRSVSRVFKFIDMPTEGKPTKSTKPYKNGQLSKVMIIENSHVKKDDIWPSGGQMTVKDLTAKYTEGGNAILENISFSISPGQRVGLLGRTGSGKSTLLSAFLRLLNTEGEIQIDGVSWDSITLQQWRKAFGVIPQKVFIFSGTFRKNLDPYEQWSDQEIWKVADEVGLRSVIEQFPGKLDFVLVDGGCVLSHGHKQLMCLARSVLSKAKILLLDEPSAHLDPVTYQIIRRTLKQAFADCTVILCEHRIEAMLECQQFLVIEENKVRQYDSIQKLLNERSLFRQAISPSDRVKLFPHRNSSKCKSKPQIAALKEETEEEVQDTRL
Test: Potentiation of CFTR G551D mutant (unknown origin) expressed in HEK293 cells incubated for 10 mins in presence of forskolin measured for 2 mins by YFP halide assay
Format: cell-based
Design: concentration or dose not given beside the values
METRIC_NAME: Activity (%)
Number only, in %; omit the unit.

Query `CC1(C)Cc2c(sc(NC(=O)[C@@H](O)C(C)(C)C)c2C(N)=O)C(C)(C)O1` yields Activity of 50

The compound listed as `CC1(C)Cc2c(sc(NC(=O)c3ccccc3O)c2C(N)=O)CO1` shows Activity equal to 51

Data point: CC(C)(C)c1cc(C(C)(C)C)c(NC(=O)c2c[nH]c3ccccc3c2=O)cc1O [IVACAFTOR] ; Activity = 50

Activity in this record for `CC1(C)Cc2c(sc(NC(=O)c3cc(C(F)(F)F)n[nH]3)c2C(N)=O)C(C)(C)O1` : 49
